System: MS2 coat protein
Method: apparent KD of MS2 coat protein; designed switch direction (-1 OFF switch, 1 ON switch): -1; higher = weaker reporter binding
Settings: input ligand: none
Measured endpoint: apparent KD of MS2 coat protein (nM)
Answers are plain numbers, in nM.

Some sequences with recorded apparent KD of MS2 coat protein:
# Sequence string, Endpoint value
rows = [
    ("UUAUAUAGGUAGGAUAUCGAUUUUAAUUAAUAUCGAGAAGGGUCAACAUGAGGAUCACCCAUGUCAGCAUGUAU [LRO-Excl6-04-Rocketman] (Eterna round: R97, puzzle: Exclusion 6)", 55.1),
    ("ACGAGCUUUUUGCUCGUUUACAUGAGGAUCACCCAUGUGUCUUCGCGCCCGGGCCCGGGCGGGCCCGGGCCCGGGCG [-52.9, -56.9, A 10%] (Eterna round: R97, puzzle: Sensor, turn-off variant 1)", 57.6),
    ("CAGCCCUGAGGAUAUACAUGAGGAUCACCCAUGUGAAGAACGGGAAACGAAACCCUCAGUAGAAGGCGGGUCAU [Eternabot (Original) Solution 14] (Eterna round: R97, puzzle: Exclusion 3)", 58.9),
    ("AUAUAGAUAGUCAGGAUAUGCUAGUGAUAACAGUAGUAGAAGGGACAUGAGGAUCACCCAUGUAGAUACUGCAC [Brourd's EX4 #3] (Eterna round: R97, puzzle: Brourd's mod of Exclusion 4)", 19.3),
]

The sequence listed as GGCACACAUGUAGGAUAUCUGCACGUGUAGUGCAGAGAAGGACAUGAGGAUCACCCAUGUAAUUAAGAUCAAUUAUUAAGUGCC [ENG1/3-A3] (Eterna round: R96, puzzle: Exclusion NG 1) has a reported apparent KD of MS2 coat protein of 58.9
